Target: CD73 on U138 neuroglioma cells (Homo sapiens)
Construct: U138 neuroglioma cells, which express CD73 on their surface; endogenous in cells; host or cells: U138 neuroglioma cells (ATCC)
Assay: Inhibition of Ecto-5′-Nucleotidase Activity in U138 Neuroglioma Cells (Assay 2)
Format: cell-based
Details: 50 μM CMP, 2 hr at 37° C., malachite green readout, read-out: Assay 2: IC50, inhibition of ecto-5′-nucleotidase activity in U138 neuroglioma cells
Procedure: Inhibition of Ecto-5′-Nucleotidase Activity in U138 Neuroglioma Cells (Assay 2) U138 cells were obtained from the American Type Culture Collection (ATCC) (Manassas, Va.), and cultured in complete growth media (DMEM, 10% FBS, 1 mM L-glutamine, 100 U penicillin-streptomycin) at 37° C., 5% CO2. […] After 2 hr at 37° C., 5% CO2, 100 μL of supernatant was removed from the cells and the concentration of inorganic phosphate was determined using malachite green reagent. […]
pIC50: −log10 of the molar value.
measure: pIC50

For this compound ( CCNc1nc(Cl)nc2c1ncn2[C@@H]1O[C@H](CO[C@](C)(C(=O)OCC)P(=O)(O)O)[C@@H](O)[C@H]1O [Example 29a] ), measured pIC50 is 6.00 to 7.00

O=C(Nc1nc(I)nc2c1ncn2[C@@H]1O[C@H](COC(C(=O)O)P(=O)(O)O)[C@@H](O)[C@H]1O)c1ccccc1 (stereo partly drawn) [Example 58] has a reported pIC50 of 6.00 to 7.00

// pIC50 value for CCOC(=O)[C@@H](OC[C@H]1O[C@@H](n2cnc3c(NC)nc(Cl)nc32)[C@H](O)[C@@H]1O)P(=O)(O)O (single isomer, unassigned) [Example 23a] : 6.00 to 7.00

Consider CCOC(=O)[C@H](OC[C@@H]1O[C@H](n2cnc3c(N)nc(C)nc32)[C@@H](O)[C@H]1O)P(=O)(O)O (single isomer, unassigned) [Example 37] . Its measured pIC50 is 6.00 to 7.00

Looking up CCOC(=O)C(OC[C@H]1C[C@@H](n2nnc3c(N)nc(Cl)nc32)[C@H](O)[C@@H]1O)P(=O)(O)O (single isomer, unassigned) [Example 77] , I see its pIC50 listed as 6.00 to 7.00

Record CS(=O)(=O)c1ccccc1CC(OC[C@H]1O[C@@H](n2cnc3c(N)nc(Cl)nc32)[C@H](O)[C@@H]1O)(C(=O)O)C(=O)O [Example 86] . Reported pIC50: 6.00 to 7.00

###

target: CD73 on U138 neuroglioma cells (Homo sapiens, UniProt P21589); construct: U138 neuroglioma cells, which express CD73 on their surface; endogenous in cells; host or cells: U138 neuroglioma cells (ATCC); assay: Inhibition of Ecto-5′-Nucleotidase Activity in U138 Neuroglioma Cells (Assay 2); assay type: cell-based; details: 50 μM CMP, 2 hr at 37° C., malachite green readout, read-out: Assay 2: IC50, inhibition of ecto-5′-nucleotidase activity in U138 neuroglioma cells
Sequence (P21589 27-549): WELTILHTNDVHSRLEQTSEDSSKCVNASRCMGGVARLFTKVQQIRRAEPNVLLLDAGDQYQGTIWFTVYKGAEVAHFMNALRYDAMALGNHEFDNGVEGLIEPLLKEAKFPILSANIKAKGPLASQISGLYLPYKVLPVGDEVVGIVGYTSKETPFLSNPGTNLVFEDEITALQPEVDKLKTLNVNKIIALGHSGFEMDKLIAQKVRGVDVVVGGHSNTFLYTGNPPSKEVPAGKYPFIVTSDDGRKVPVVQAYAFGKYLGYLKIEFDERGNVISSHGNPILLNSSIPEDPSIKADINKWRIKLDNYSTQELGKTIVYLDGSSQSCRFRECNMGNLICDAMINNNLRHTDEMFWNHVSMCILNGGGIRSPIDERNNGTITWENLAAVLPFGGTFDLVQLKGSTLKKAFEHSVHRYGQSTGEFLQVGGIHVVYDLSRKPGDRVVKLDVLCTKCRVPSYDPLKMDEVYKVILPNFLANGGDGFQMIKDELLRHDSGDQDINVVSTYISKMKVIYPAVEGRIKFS
measure: IC50

The value of IC50 recorded for Nc1nc(Cl)nc2c1ncn2[C@@H]1O[C@H](COC(C(=O)O)C(=O)O)[C@@H](O)[C@H]1O when tested on CD73 on U138 neuroglioma cells (Homo sapiens, UniProt P21589) reads 100 to 1000 nM

Test item CCOC(=O)C(OC[C@H]1C[C@@H](n2cnc3c(N)nc(Cl)nc32)[C@H](O)[C@@H]1O)P(=O)(O)O (single isomer, unassigned) [Example 76a] ; CD73 on U138 neuroglioma cells (Homo sapiens, UniProt P21589); reported IC50 was 100 to 1000 nM

Entry N#Cc1ccc(CC(OC[C@H]2O[C@@H](n3cnc4c(N)nc(Cl)nc43)[C@H](O)[C@@H]2O)(C(=O)O)C(=O)O)cc1 : IC50 on CD73 on U138 neuroglioma cells (Homo sapiens, UniProt P21589) = < 100 nM

The molecule CC(C)(C)NC(=O)[C@@H](OC[C@H]1O[C@@H](n2cnc3c(N)nc(Cl)nc32)[C@H](O)[C@@H]1O)P(=O)(O)O (single isomer, unassigned) [Example 19a] on CD73 on U138 neuroglioma cells (Homo sapiens, UniProt P21589): IC50 was 100 to 1000 nM

Fill in: CD73 on U138 neuroglioma cells (Homo sapiens, UniProt P21589) IC50 for CCN(CC)C(=O)[C@H](OC[C@H]1O[C@@H](n2cnc3c(N)nc(Cl)nc32)[C@H](O)[C@@H]1O)P(=O)(O)O (single isomer, unassigned) [Example 82a] = 100 to 1000 nM

Record O=C(O)C(OC[C@H]1O[C@@H](n2cnc3c(Nc4ccccc4)ncnc32)[C@H](O)[C@@H]1O)P(=O)(O)O (stereo partly drawn) ; system CD73 on U138 neuroglioma cells (Homo sapiens, UniProt P21589); IC50 = 100 to 1000 nM
